tested target: human histamine H4 receptor (Homo sapiens)
Construct: made in house; host or cells: Sf9 cells (membrane preparations)
test description: [3H]histamine displacement assay, membranes of Sf9 cells expressing hH4R with Gαi2 and Gβ1γ2
Format: binding
test conditions: Sf9 membranes, mean within 95% CI
measured property: pKi
// field semantics: pKi = negative decimal log of concentration (mol/L)

Observe how each entry below is paired with its result.
>  <compound>
CCCCc1nc(N)nc(N2CCN(C)CC2)n1 [Compound 10]

>  <pKi>
6.72

$$$$
>  <compound>
CC/C=C/c1nc(N)nc(N2CCN(C)CC2)n1 [Compound 15]

>  <pKi>
5.83

$$$$
>  <compound>
CN1CCN(c2nc(N)nc(C3CCCCC3)n2)CC1 [Compound 5]

>  <pKi>
6.36

$$$$
>  <compound>
C=CCC(C)c1nc(N)nc(N2CCN(C)CC2)n1 (stereo not drawn) [Compound 17]

>  <pKi>
6.58

$$$$
>  <compound>
C=CCCc1nc(N)nc(N2CCN(C)CC2)n1 [Compound 16]

>  <pKi>
6.50

$$$$
>  <compound>
CC(C)CCc1nc(N)nc(N2CCN(C)CC2)n1 [Compound 14]

>  <pKi>
6.69

$$$$
>  <compound>
CN1CCN(c2nc(N)nc(C3CC3)n2)CC1 [Compound 2]

>  <pKi>
6.24

$$$$
>  <compound>
C=CC(C)Cc1nc(N)nc(N2CCN(C)CC2)n1 (stereo not drawn) [Compound 18]

>  <pKi>
6.58

$$$$

Given the compound CN1CCN(c2nc(N)nc(CC3C=CCC3)n2)CC1 (stereo not drawn) [Compound 7] , what is its reported pKi? 7.02

Given the compound CCCCCc1nc(N)nc(N2CCN(C)CC2)n1 [Compound 19] , what is its reported pKi? 6.41

Given the compound CCCC(C)c1nc(N)nc(N2CCN(C)CC2)n1 (stereo not drawn) [Compound 11] , what is its reported pKi? 6.45

Given the compound COC(C)Cc1nc(N)nc(N2CCN(C)CC2)n1 (stereo not drawn) [Compound 13] , what is its reported pKi? 5.37

Given the compound CCC(C)Cc1nc(N)nc(N2CCN(C)CC2)n1 (stereo not drawn) [Compound 12] , what is its reported pKi? 6.49

Given the compound CN1CCN(c2nc(N)nc(C3CCCC3)n2)CC1 [Compound 4] , what is its reported pKi? 5.91

Given the compound CN1CCN(c2nc(N)nc(CC3CCCC3)n2)CC1 [Compound 6] , what is its reported pKi? 7.20

* * *

tested target: hH4R (Homo sapiens)
Sequence (Q9H3N8 whole entry): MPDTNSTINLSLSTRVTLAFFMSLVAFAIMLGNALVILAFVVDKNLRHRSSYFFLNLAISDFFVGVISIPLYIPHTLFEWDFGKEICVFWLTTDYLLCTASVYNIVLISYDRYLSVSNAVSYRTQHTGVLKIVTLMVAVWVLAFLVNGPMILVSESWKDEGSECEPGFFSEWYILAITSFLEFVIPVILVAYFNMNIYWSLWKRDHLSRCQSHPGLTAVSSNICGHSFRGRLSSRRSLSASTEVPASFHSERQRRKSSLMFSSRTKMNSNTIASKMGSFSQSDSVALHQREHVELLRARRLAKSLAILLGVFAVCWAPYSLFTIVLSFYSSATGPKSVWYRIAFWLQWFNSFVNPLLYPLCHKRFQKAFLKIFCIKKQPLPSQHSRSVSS
test description: β-arrestin recruitment assay (LiveBLAzer, Tango-H4-bla U2OS cells)
Type: cell-based
Parameters: expressed in transfected cells; host or cells: Tango-H4-bla U2OS cells
test conditions: at 10 µM, antagonist mode
measured property: β-arrestin hH4R % of max. Antagonist Activity at 10 µM (%)
API: value field is a number in %; no unit string.

>  <molecule>
CN1CCN(c2nc(N)nc(CC3CCCCC3)n2)CC1

>  <tested target>
hH4R (Homo sapiens)

>  <measured>
99

$$$$
>  <molecule>
CCC(C)Cc1nc(N)nc(N2CCN(C)CC2)n1 (stereo not shown)

>  <tested target>
hH4R (Homo sapiens)

>  <measured>
100

$$$$
>  <molecule>
CC(C)CCc1nc(N)nc(N2CCN(C)CC2)n1

>  <tested target>
hH4R (Homo sapiens)

>  <measured>
101

$$$$
>  <molecule>
CCCCCc1nc(N)nc(N2CCN(C)CC2)n1

>  <tested target>
hH4R (Homo sapiens)

>  <measured>
99

$$$$

Given the molecule "CN1CCN(c2nc(N)nc(C3CCCCC3)n2)CC1" , what is its reported β-arrestin hH4R % of max. Antagonist Activity at 10 µM? 92

Given the molecule "CN1CCN(c2nc(N)nc(C3CC3)n2)CC1" , what is its reported β-arrestin hH4R % of max. Antagonist Activity at 10 µM? 96

Given the molecule "CC/C=C/Cc1nc(N)nc(N2CCN(C)CC2)n1" , what is its reported β-arrestin hH4R % of max. Antagonist Activity at 10 µM? 101

Given the molecule "CN1CCN(c2nc(N)nc(CC3CCCC3)n2)CC1" , what is its reported β-arrestin hH4R % of max. Antagonist Activity at 10 µM? 101

Given the molecule C=CC(C)Cc1nc(N)nc(N2CCN(C)CC2)n1 (stereo not shown) , what is its reported β-arrestin hH4R % of max. Antagonist Activity at 10 µM? 101

Given the molecule "CN1CCN(c2nc(N)nc(C3CCC3)n2)CC1" , what is its reported β-arrestin hH4R % of max. Antagonist Activity at 10 µM? 87

Given the molecule "CN1CCN(c2nc(N)nc(C3CCCC3)n2)CC1" , what is its reported β-arrestin hH4R % of max. Antagonist Activity at 10 µM? 95

Given the molecule CN1CCN(c2nc(N)nc(CC3C=CCC3)n2)CC1 (stereo not shown) , what is its reported β-arrestin hH4R % of max. Antagonist Activity at 10 µM? 103

Given the molecule CCCC(C)c1nc(N)nc(N2CCN(C)CC2)n1 (stereo not shown) , what is its reported β-arrestin hH4R % of max. Antagonist Activity at 10 µM? 97
